measurement_protocol: Elimination rate constant in C57BL/6 mouse serum at 50 mg/kg, ip administered as single dose measured up to 360 mins by UPLC-MS analysis
Type: ADME, organism-based
quantity_kind: k el at 6 h
Report as: number unit

Specify k el at 6 h for `Cl.Cn1cccc1C(=O)N[C@@H](CCn1ccnc1)C(=O)NCc1ccccc1` and stop.
0.000333 s⁻¹

* * *

measurement_protocol: Tmax in C57BL/6 mouse serum at 50 mg/kg, ip administered as single dose measured up to 360 mins by UPLC-MS analysis
Format: ADME, organism-based
quantity_kind: Tmax (min)
Numbers only, in min.

Specify Tmax for `Cl.Cn1cccc1C(=O)N[C@@H](CCn1ccnc1)C(=O)NCc1ccccc1` and stop.
15
